Source listed as ChEMBL document CHEMBL2218924.

- test.target: Serine/threonine-protein kinase 4 (Homo sapiens)
- Sequence (whole entry): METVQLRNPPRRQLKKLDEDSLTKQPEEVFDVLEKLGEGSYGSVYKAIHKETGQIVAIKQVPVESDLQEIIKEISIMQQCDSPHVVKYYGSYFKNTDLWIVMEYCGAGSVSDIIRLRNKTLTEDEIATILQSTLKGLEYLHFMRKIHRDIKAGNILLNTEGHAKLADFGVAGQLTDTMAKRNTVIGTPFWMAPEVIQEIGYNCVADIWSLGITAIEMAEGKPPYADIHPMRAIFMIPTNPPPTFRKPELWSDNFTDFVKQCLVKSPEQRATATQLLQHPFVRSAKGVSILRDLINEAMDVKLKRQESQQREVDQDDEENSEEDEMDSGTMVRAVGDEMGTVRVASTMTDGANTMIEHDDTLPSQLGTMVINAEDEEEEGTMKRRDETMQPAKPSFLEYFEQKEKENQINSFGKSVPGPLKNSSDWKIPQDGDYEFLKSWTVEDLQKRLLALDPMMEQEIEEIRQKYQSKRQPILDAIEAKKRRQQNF
- condition.set: at 10 µM
So basically: is residual activity under 90%? Then class 1. Not under? Then class 0.

compound	test.target	classification
Cn1cc(/C=C2\C(=O)Nc3ccc(S(N)(=O)=O)cc32)c2ccccc21	Serine/threonine-protein kinase 4 (Homo sapiens)	class 1
O=C(Nc1cccc(Nc2cc(Nc3cccc(C(F)(F)F)c3)ncn2)c1)C1CC1	Serine/threonine-protein kinase 4 (Homo sapiens)	class 1
O=C1NC(=O)/C(=C\c2ccc3nccnc3c2)S1	Serine/threonine-protein kinase 4 (Homo sapiens)	class 0
Nc1cccc(-c2cc3c(Oc4cccc(O)c4)ncnc3[nH]2)c1	Serine/threonine-protein kinase 4 (Homo sapiens)	class 1
Cc1cc2ncc(-c3ccccc3)nc2cc1C	Serine/threonine-protein kinase 4 (Homo sapiens)	class 0
CO[C@@H]1[C@H](N(C)C(=O)c2ccccc2)C[C@H]2O[C@]1(C)n1c3ccccc3c3c4c(c5c6ccccc6n2c5c31)C(=O)NC4	Serine/threonine-protein kinase 4 (Homo sapiens)	class 1

Lookup: residual activity strictly < 90% for this compound? O=C1c2ccccc2-[n+]2ccc3c([nH]c4ccccc43)c21
Found: class 0

Lookup: residual activity strictly < 90% for this compound? CCN(CC)C(=O)c1ccc(Nc2nc(OCC3CCCCC3)c3nc[nH]c3n2)cc1
Found: class 1

Lookup: residual activity strictly < 90% for this compound? O=C1NC(=O)/C(=C/c2ccc3c(c2)OC(F)(F)O3)S1
Found: class 0

Lookup: residual activity strictly < 90% for this compound? CNc1cc2c(Nc3cccc(Br)c3)ncnc2cn1
Found: class 0

Lookup: residual activity strictly < 90% for this compound? O=C1Nc2ccccc2/C1=C1/Nc2ccccc2/C1=N\OCCC(O)CO (configuration not stated)
Found: class 1

Lookup: residual activity strictly < 90% for this compound? CC(=O)c1ccc(N2CCOCC2)cc1O
Found: class 0

---

- test.target: Protein-tyrosine kinase 6 (Homo sapiens)
- condition.set: at 1 µM
Reported values of residual activity for individual entries
Entry rule: numbers only, all in %.

Examples from the recorded data:
structure	result.value
Oc1n[nH]c2nnc(-c3c(-c4ccccc4)nn4ccccc34)cc12	97
N#C/C(=C(\N)Sc1ccc(N)cc1)c1ccccc1C(F)(F)F	105
Nc1n[nH]c2nnc(-c3c(-c4ccccc4)nn4ccccc34)cc12	95

Short answer for CC(C)n1cnc2/c(=N/c3cccc(Cl)c3)nc(NCCO)[nH]c21 : residual activity was 105

Short answer for Oc1ccc(-c2nc(-c3ccc(F)cc3)c(-c3ccncc3)[nH]2)cc1 : residual activity was 49

Short answer for Cn1nc2c3c(cccc31)C(=O)c1ccccc1-2 : residual activity was 103

Short answer for COc1ccc(OC)c2c(=S)c3ccccc3[nH]c12 : residual activity was 104

Short answer for Cc1ccc(S(=O)(=O)/C=C/C#N)cc1 : residual activity was 107

Short answer for CN(C)c1ccc(/C=C2\C(=O)Nc3ccccc32)cc1 : residual activity was 112

Short answer for NC(=O)c1ccc2[nH]c(-c3ccc(Oc4ccc(Cl)cc4)cc3)nc2c1 : residual activity was 102

Short answer for c1ccc(-c2n[nH]cc2-c2ccnc3ccccc23)nc1 : residual activity was 93
